Tested on: a variety of test species
Experiment: Post-emergence herbicidal activity (glasshouse, sprayed 8 days after sowing, evaluated after 13 days)
Assay type: in vivo
Settings: Abutilon theophrasti, 1000 g/ha, scale 0-5
Method: Seeds of a variety of test species were sown in standard soil in pots. […] After 13 days, the test was evaluated (5=total damage to plant; 0=no damage to plant).
measured.property: Post-emergence herbicidal damage score, ABUTH (Abutilon theophrasti)
Field format: numeric only.

CCn1nc(N2C(=O)C(C)=C(Cl)C2O)cc1C(C)(C)C (stereo not drawn): 5
COC1=C(C)C(=O)N(c2cc(C(F)(F)F)n(C)n2)C1O (stereo not drawn): 5

With those in mind, consider the next molecule.
Problem: Entry under review: CC1=C(Cl)C(O)N(c2cc(C)n(C(F)(F)F)n2)C1=O (stereo not drawn) . Reported Post-emergence herbicidal damage score, ABUTH (Abutilon theophrasti)?
Result: 1
